Biological target: THK-523 site in AD brain tissue homogenates (NFTs) (Homo sapiens)
Sequence (P10636 623-708 limits assumed): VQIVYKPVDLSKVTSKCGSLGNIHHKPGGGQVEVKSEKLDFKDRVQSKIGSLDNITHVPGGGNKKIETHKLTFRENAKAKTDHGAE
Format: binding
Settings: Ki with [3H]THK-523 as reference radioligand, neat ethanol wash

cpd_smiles: Nc1ccc(-c2ccc3cc(OCCF)ccc3n2)cc1
Ki [nM]: 45

###

Ki, T807 site in AD brain tissue homogenates (NFTs) (Homo sapiens): measured values
parameter: Ki

compound: Nc1ccc(-c2ccc3cc(OCCOCCF)ccc3n2)cc1 [10b]
parameter: Ki
measured_result: > 1000 nM
--
compound: Nc1ccc(-c2ccc3cc(OCCOCCNCCO)ccc3n2)cc1 [12f]
parameter: Ki
measured_result: > 1000 nM
--
compound: Nc1ccc(-c2ccc3cc(OCCOCCOCCOCCF)ccc3n2)cc1 [10d]
parameter: Ki
measured_result: > 1000 nM
--
compound: Nc1ccc(-c2ccc3cc(OCCOCCOCCF)ccc3n2)cc1 [10c]
parameter: Ki
measured_result: > 1000 nM
--
compound: Nc1ccc(-c2ccc3cc(OCCF)ccc3n2)cc1 [THK-523]
parameter: Ki
measured_result: 425 nM
--
compound: Nc1ccc(-c2ccc3cc(OCCOCCN4CCOC4=O)ccc3n2)cc1 [12c]
parameter: Ki
measured_result: > 1000 nM

###

Target: THK-523 site in AD brain tissue homogenates (NFTs) (Homo sapiens)
Assay type: binding
Conditions: Ki with [3H]THK-523 as reference radioligand, Tris-buffer (pH 7.2) wash
pKi: −log10 of the molar value.

cpd_smiles: Nc1ccc(-c2ccc3cc(OCCF)ccc3n2)cc1
study_system: THK-523 site in AD brain tissue homogenates (NFTs) (Homo sapiens)
pKi: 7.28

###

Molecular target: PIB site in AD brain tissue homogenates (thioflavin-T binding site on β-amyloid plaques) (Homo sapiens, UniProt P05067)
Sequence (P05067 672-711 limits assumed): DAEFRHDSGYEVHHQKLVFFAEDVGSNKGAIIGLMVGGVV
pKi: −log10 of the molar value.
We begin with a simple list: items and their reported pKi.

molecule: Nc1ccc(-c2ccc3cc(OCCOCCNCCO)ccc3n2)cc1 [12f]
pKi: < 6.00

molecule: Nc1ccc(-c2ccc3cc(OCCOCCF)ccc3n2)cc1 [10b]
pKi: < 6.00

molecule: Nc1ccc(-c2ccc3cc(OCCF)ccc3n2)cc1
pKi: < 6.00

molecule: Nc1ccc(-c2ccc3cc(OCCOCCOCCF)ccc3n2)cc1 [10c]
pKi: < 6.00

molecule: Nc1ccc(-c2ccc3cc(OCCOCCOCCOCCOCCF)ccc3n2)cc1 [10e]
pKi: 7.37

molecule: Nc1ccc(-c2ccc3cc(OCCOCCOCCOCCF)ccc3n2)cc1 [10d]
pKi: < 6.00

molecule: Nc1ccc(-c2ccc3cc(OCCOCCN4CCOC4=O)ccc3n2)cc1 [12c]
pKi: < 6.00

molecule: Nc1ccc(-c2ccc3cc(OCCOCCOCCOCCOCCOCCF)ccc3n2)cc1 [10f]
pKi: < 6.30
